# Read-out: TIMP1, TIMP1 (gene 7076)
# ASSAY PROCEDURE: LTEA_HepaRG_TIMP1: Life Technologies and Expression Analysis (LTEA) Assay for TIMP1 using HepaRG (AID 2283534);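 further: TaqMan qRT-PCR signal normalized to ACTB GAPDH and POLR2A housekeeping genes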
# CONDITION PARAMETERS: mRNA level, 48 h; actives raise or lower the signal
# Protocol: LTEA_HepaRG is a cell based, multiplexed-readout assay that uses HepaRG, a human liver cell line, with measurements taken at 48 hours after chemical dosing on a 96-well plate.LTEA_HepaRG_TIMP1 is one of 102 assay component(s) measured in the LTEA HepaRG cell culture assay. It is a marker of Cell proliferation, survival, death.Data from the assay component LTEA_HepaRG_TIMP1 was analyzed into 1 endpoint. […]
Calls of active or inactive are those of the source. How the source made its calls: active means hit-call score of the fitted dose curve at least 0.9, where 1 is the maximum; inactive means score below 0.9.
RECORDED METRIC: outcome

Solved cases (5 shown):
MOLECULE | RECORDED METRIC | RESULT
CC12CC1(C)C(=O)N(c1cc(Cl)cc(Cl)c1)C2=O (stereo unspecified) | outcome | inactive
CCOP(=S)(OCC)SCSP(=S)(OCC)OCC | outcome | inactive
CCOP(=S)(OCC)Oc1nc(Cl)c(Cl)cc1Cl | outcome | inactive
O=c1[nH]c(=O)[nH]c(=O)[nH]1 | outcome | inactive
CC(C)(c1ccccc1)c1ccc(O)c(C(C)(C)c2ccccc2)c1 | outcome | inactive

Need outcome, item Cn1sc(Cl)cc1=O
inactive

----------
# Read-out: Human Leukocyte Antigen - DR isotype (HLADR), HLA-DRA (gene 3122)
# ASSAY PROCEDURE: BSK_3C_HLADR: BioMAP Diversity Plus: 3C Assay for Human Leukocyte Antigen - DR isotype (HLADR) Biomarker Activity (AID 2283019)
# CONDITION PARAMETERS: primary human endothelial cells (HUVEC); actives raise or lower the signal
Active and inactive are the calls of the source. How the source made its calls: active means hit-call score of the fitted dose curve at least 0.9, where 1 is the maximum; inactive means score below 0.9.
RECORDED METRIC: AC50

Previously resolved entries follow.
COMPOUND | AC50
ClCC(Cl)CCl | inactive
CCOP(=S)(OCC)Oc1nc(Cl)c(Cl)cc1Cl | 28.2 µM (active)
O=Cc1cccc(Oc2ccccc2)c1 | inactive
CC(C)CCCCCCOC(=O)c1ccccc1C(=O)OCCCCCCC(C)C | inactive
ClC1(Cl)C2(Cl)C3(Cl)C4(Cl)C(Cl)(Cl)C5(Cl)C3(Cl)C1(Cl)C5(Cl)C24Cl (stereo unspecified) | inactive

# query: AC50 of entry COC[C@H](C)N(C(=O)CCl)c1c(C)csc1C
inactive

----------
# ASSAY PROCEDURE: Tanguay_ZF_120hpf_MORT_legacy: (Legacy) Oregon State University Tanguay Lab 120 Hour Post-fertilization zebrafish Assay for Mortality (AID 2283633);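 on AC50: fitted as increase in binary mortality versus DMSO negative control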
Activity calls are given as the source filed them. How the source made its calls: active means hit-call score of the fitted dose curve at least 0.9, where 1 is the maximum; inconclusive means response in the unintended direction; inactive means score below 0.9.
RECORDED METRIC: AC50

Consider the worked cases shown below.
GIVEN SMILES | AC50
C[C@@H]1C[C@@H]([C@H](O)CC2CC(=O)NC(=O)C2)C(=O)[C@@H](C)C1 | 43.2 µM (active)
O=C(O)C(F)(F)C(F)(F)C(F)(F)C(F)(F)C(F)(F)C(F)(F)C(F)(F)C(F)(F)C(F)(F)C(F)(F)F | inactive
COc1cc(-c2ccc(N)c(OC)c2)ccc1N | inactive
CC(=O)[O][Hg][c]1ccccc1 | 0.179 µM (active)
O=c1[nH]c(=O)[nH]c(=O)[nH]1 | inactive

// switching to the query compound
Which AC50 value belongs to O=C(Nc1ccc2[nH]ccc2c1)c1cc2cc(F)ccc2n1Cc1cccc(F)c1 ?
inactive

----------
# Read-out: E-selectin (Homo sapiens)
# ASSAY PROCEDURE: BSK_SAg_Eselectin: BioMAP Diversity Plus: SAg Assay for Eselectin Biomarker Activity (AID 2283091)
# CONDITION PARAMETERS: primary human HUVEC with PBMC; actives raise or lower the signal
The source made the active and inactive calls. How the source made its calls: active means hit-call score of the fitted dose curve at least 0.9, where 1 is the maximum; inactive means score below 0.9.
Valid outcomes are listed here; reply with one: label 1 (active), label 0 (inactive)

Test call for this molecule, please: CC(C)(C)CC(C)(C)c1ccc(O)cc1
label 1

Fill in: this test's call for BrCCBr is ___
label 0

// return assay outcome for ClC1(Cl)C2(Cl)C3(Cl)C4(Cl)C(Cl)(Cl)C5(Cl)C3(Cl)C1(Cl)C5(Cl)C24Cl (stereo not drawn)
label 0

Which outcome was entered for the molecule Oc1cccc2cccnc12 in this test?
label 1

Please share the test call associated with CN(C)N=O .
label 0

Dear all, I need the recorded test outcome for CCC(=O)C(CC(C)N(C)C)(c1ccccc1)c1ccccc1 (stereo not drawn) , thank you.
label 0

Would you mind telling me which call this test gave C=CC(=O)OCCCCCC(C)C ?
label 0

Kindly provide the recorded test outcome for the following molecule: COP(=S)(OC)Oc1ccc(S(=O)(=O)N(C)C)cc1
label 0

----------
# ASSAY PROCEDURE: ATG_ERE_CIS: Attagene CIS-FACTORIAL HepG2 Assay for Estrogen Response Element (ERE) (AID 2282940)
# CONDITION PARAMETERS: HepG2 ERE cis-reporter, Attagene RNA transcript; actives raise or lower the signal
The source made the active and inactive calls. Rule for the calls: active = hit-call score of the fitted dose curve at least 0.9, where 1 is the maximum; inactive = score below 0.9.
Parameter call: string, one of class 1 for active, class 0 for inactive

For Clc1ccc(COC(Cn2ccnc2)c2ccc(Cl)cc2Cl)cc1 (centres undefined) , what call appears in the results of this test?
class 0

Lab log entry: [O-][Cl+2]([O-])O — outcome as called in the assay?
class 0

Please state the recorded outcome for this molecule: COP(=S)(OC)Oc1cc(Cl)c(Cl)cc1Cl
class 1

Fill in: this test's call for COc1cccc(C=O)c1 is ___
class 0

Hi, sorry to bother you, what did the test record for O=C1C(Cl)=C(Cl)C(=O)c2ccccc21 ?
class 1

GET /call?item= O=S(=O)(c1ccc(Cl)cc1)c1ccc(Cl)cc1 returns the recorded outcome of this test.
class 0

Returns: the outcome recorded for CCOP(=S)(OCC)Oc1ccc(S(C)=O)cc1 (centres undefined) in this assay.
class 0

Kindly provide the recorded test outcome for the following molecule: ClC(Cl)=C(Cl)C(Cl)=C(Cl)Cl
class 0

What call does the record list for COc1ccc(C=O)cc1OC ?
class 1

# outcome recorded in this test, key = O=P(O)(O)CN(CP(=O)(O)O)CP(=O)(O)O
class 0

Short answer needed: outcome of this test for CCOP(=S)(OCC)SCSP(=S)(OCC)OCC ?
class 1

Please state the recorded outcome for this molecule: C(=NC1CCCCC1)=NC1CCCCC1
class 0

Any idea what this test logged for CN(CCCC(=O)c1cccnc1)N=O ?
class 0

For N#CN=C(N)N , which call appears in the assay record?
class 0

----------
# ASSAY PROCEDURE: CCTE_Shafer_MEA_dev_correlation_coefficient_mean: CCTE's Neural Network Formation Assay for Mean Correlation Coefficient, Shafer Lab (AID 2284093)
Calls of active or inactive are those of the source. The calls were made as follows: active = hit-call score of the fitted dose curve at least 0.9, where 1 is the maximum; inactive = score below 0.9.
Returns: one label drawn from Yes = active, No = inactive

What outcome does the record of this test show for Cn1sc(Cl)cc1=O ?
Yes

Test call, this molecule: O=C1C2(Cl)C3(Cl)C4(Cl)C(Cl)(Cl)C5(Cl)C3(Cl)C1(Cl)C5(Cl)C24Cl (stereo not drawn)
Yes

Name the outcome recorded for COP(=O)(OC)O/C(=C\Cl)c1cc(Cl)c(Cl)cc1Cl in the assay.
No

Call for entry O=C(O)C(F)(F)C(F)(F)C(F)(F)C(F)(F)C(F)(F)C(F)(F)C(F)(F)C(F)(F)C(F)(F)C(F)(F)F :
No

Record request — test call for ClC1(Cl)C2(Cl)C3(Cl)C4(Cl)C(Cl)(Cl)C5(Cl)C3(Cl)C1(Cl)C5(Cl)C24Cl (stereo not drawn)
Yes

GET /call?item= C=C(C)C(=O)[O][Sn]([CH2]CCC)([CH2]CCC)[CH2]CCC returns the recorded outcome of this test.
Yes

Can you look up the reported call for CC(C)(C)c1cc(O)ccc1O for me?
Yes

Call for entry CCC(=O)C(CC(C)N(C)C)(c1ccccc1)c1ccccc1 (stereo not drawn) :
Yes

----------
# ASSAY PROCEDURE: ATG_MRE_CIS: Attagene CIS-FACTORIAL HepG2 Assay for human Metal Responsive Element (MRE) (AID 2282954)
# CONDITION PARAMETERS: HepG2 MRE cis-reporter transcription, Attagene multiplex; actives raise or lower the signal
Activity calls are given as the source filed them. How the source made its calls: active means hit-call score of the fitted dose curve at least 0.9, where 1 is the maximum; inactive means score below 0.9.
Just give me one of these, please: 1 (yes) for active, 0 (no) for inactive

Hi, do you know how O=C/C=C/c1ccccc1 came out in this test?
0 (no)

How was CCOP(=O)(CN(CCO)CCO)OCC classified in this test?
0 (no)

State the result this test recorded for CN(CCCC(=O)c1cccnc1)N=O .
0 (no)

Could you please tell me the result logged for CC1(C)Cc2cccc(O)c2O1 in this assay?
0 (no)

Outcome logged for [O-][Cl+2]([O-])O in this assay:
0 (no)

Which outcome was assigned to CC(C)(c1ccc(OCC2CO2)cc1)c1ccc(OCC2CO2)cc1 (stereo not given) in this test?
1 (yes)

GET /call?item= NC(=S)Nc1ccccc1 returns the recorded outcome of this test.
0 (no)

What outcome does the record of this test show for OCC(O)CCl (stereo not given) ?
0 (no)

Record lookup: outcome of this test for COc1cc(OC)nc(NC(=O)NS(=O)(=O)c2ncccc2C(=O)N(C)C)n1 ?
0 (no)

Short answer needed: outcome of this test for COc1ccccc1OC ?
0 (no)

Tell me the assay call for O=C(Cc1ccccc1)c1ccccc1 please.
0 (no)

Recorded call for CC(C)(C)c1cc(O)ccc1O ?
1 (yes)

Query: recorded result category for N#Cc1ccccn1 in this test
0 (no)

Status in this test for O=C(O)C(F)(F)C(F)(F)C(F)(F)C(F)(F)C(F)(F)C(F)(F)F ?
0 (no)

Recorded test call requested for ClCC(Cl)CCl
0 (no)
